Test system: BEAS2B cells
Experiment: Poly I:C-induced ICAM-1 induction in BEAS2B cells
Format: cell-based
Settings: Homo sapiens, BEAS-2B; Table 3; read-out: BEAS2B (polyIC) ICAM1 IC50
Collected IC50 values appear next to each entry.
observed-property: IC50

sample_smiles=COCCNC(=O)Nc1cc(Oc2ccc(NC(=O)Nc3cc(C(C)(C)C)nn3-c3ccc(C)cc3)c3ccccc23)ccn1 observed_property=IC50 result="< 5000 nM"
sample_smiles=Cc1ccc(-n2nc(C(C)(C)C)cc2NC(=O)Nc2ccc(Oc3ccnc(NC(=O)N(C)CCN4CCOCC4)c3)c3ccccc23)cc1 observed_property=IC50 result="< 5000 nM"
sample_smiles=Cc1ccc(-n2nc(C(C)(C)C)cc2NC(=O)Nc2ccc(Oc3ccnc(NC(N)=O)c3)c3ccccc23)cc1 observed_property=IC50 result="< 10 nM"
sample_smiles=Cc1ccc(-n2nc(C(C)(C)C)cc2NC(=O)Nc2ccc(Oc3ccnc(NC(=O)NCc4cc(C)no4)c3)c3ccccc23)cc1 observed_property=IC50 result="< 5000 nM"
sample_smiles=CC(=O)N1CCC(NC(=O)Nc2cc(Oc3ccc(NC(=O)Nc4cc(C(C)(C)C)nn4-c4ccc(C)cc4)c4ccccc34)ccn2)CC1 observed_property=IC50 result="< 5000 nM"
sample_smiles=CCNC(=O)Nc1cc(Oc2ccc(NC(=O)Nc3cc(C(C)(C)C)nn3-c3ccc(C)cc3)c3ccccc23)ccn1 observed_property=IC50 result="< 5000 nM"
sample_smiles=Cc1ccc(-n2nc(C(C)(C)C)cc2NC(=O)Nc2ccc(Oc3ccnc(NC(=O)N4CCOCC4)c3)c3ccccc23)cc1 observed_property=IC50 result="< 10 nM"
sample_smiles=Cc1ccc(-n2nc(C(C)(C)C)cc2NC(=O)Nc2ccc(Oc3ccnc(NC(=O)NCC(=O)N4CCOCC4)c3)c3ccccc23)cc1 observed_property=IC50 result="< 10 nM"
sample_smiles=Cc1ccc(-n2nc(C(C)(C)C)cc2NC(=O)Nc2ccc(Oc3ccnc(NC(=O)NCCCn4ccnc4)c3)c3ccccc23)cc1 observed_property=IC50 result="< 10 nM"
sample_smiles=Cc1ccc(-n2nc(C(C)(C)C)cc2NC(=O)Nc2ccc(Oc3ccnc(NC(=O)NCCCCN4CCOCC4)c3)c3ccccc23)cc1 observed_property=IC50 result="< 10 nM"
sample_smiles=Cc1ccc(-n2nc(C(C)(C)C)cc2NC(=O)Nc2ccc(Oc3ccnc(NC(=O)N4CCN(C)CC4)c3)c3ccccc23)cc1 observed_property=IC50 result="< 10 nM"
sample_smiles=Cc1ccc(-n2nc(C(C)(C)C)cc2NC(=O)Nc2ccc(Oc3ccnc(NC(=O)N4CC[C@@H](N(C)C)C4)c3)c3ccccc23)cc1 observed_property=IC50 result="< 10 nM"
sample_smiles=Cc1ccc(-n2nc(C(C)(C)C)cc2NC(=O)Nc2ccc(Oc3ccnc(NC(=O)NCC(=O)NCCN4CCOCC4)c3)c3ccccc23)cc1 observed_property=IC50 result="< 5000 nM"

---

Test system: U937 cells
Test: LPS-induced TNF alpha release in U937 cells
Format: cell-based
Conditions: Homo sapiens; read-out: DU937 (LPS) TNFα REC50
pEC50: −log10 of the molar value.
observed-property: pEC50

sample_smiles=Cc1ccc(-n2nc(C(C)(C)C)cc2NC(=O)Nc2ccc(Oc3ccnc(NC(=O)NCCCCN4CCOCC4)c3)c3ccccc23)cc1 result="> 8.00"
sample_smiles=COCCNCC(=O)Nc1cc(Oc2ccc(NC(=O)Nc3cc(C(C)(C)C)nn3-c3ccc(C)cc3)c3ccccc23)ccn1 result="> 8.00"
sample_smiles=COCC(=O)NCC(=O)Nc1cc(Oc2ccc(NC(=O)Nc3cc(C(C)(C)C)nn3-c3ccc(C)cc3)c3ccccc23)ccn1 result="> 8.00"

Reference source for all entries: patent US8299074B2
